test: Pharmacokinetics in mice after single oral dosing, blood and liver exposure by LC-MS; assay type: in vivo, mice (C57/bl6/J); details: single oral dose 20 mg/kg, time point 4 h
endpoint_label: liver exposure (µM)
Respond with the bare value in µM.

The reported liver exposure of the compound Cc1ccc2ccccc2c1C(=O)N(Cc1ccc(-c2cccc(C(C)(C)C(=O)NO)c2)cc1)Cc1ccc(C(F)(F)F)o1 was 0.61

Form: compound = Cc1ccc2ccccc2c1C(=O)N(Cc1ccc(-c2cccc(S(=O)(=O)CC(=O)O)c2)cc1)Cc1ccc(C(F)(F)F)o1 ; liver exposure = 12.7

For this compound ( Cc1ccc2ccccc2c1CN(Cc1ccc(-c2cccc(S(=O)(=O)CC(=O)O)c2)cc1)Cc1ccc(C(F)(F)F)o1 ), measured liver exposure is 18

Memo: N#Cc1ccc2ccccc2c1CN(Cc1ccc(-c2cccc(S(=O)(=O)CC(=O)O)c2)cc1)Cc1ccc(C(F)(F)F)o1 , reported liver exposure: 0.42

Further cases:
liver exposure reading for Cc1ccc2ccccc2c1C(=O)N(Cc1ccc(-c2cccc(C(C)(C)C(=O)O)c2)cc1)Cc1ccc(C(F)(F)F)o1 : 89

Entry Cc1ccc2ccccc2c1CN(Cc1ccc(-c2cccc(C(C)(C)C(=O)O)c2)cc1)Cc1ccc(C(F)(F)F)o1 ; liver exposure = 10.3

Noted for Cc1ccc2ccccc2c1C(=O)N(Cc1ccc(C(F)(F)F)o1)Cc1ncc(-c2cccc(C(C)(C)C(=O)O)c2)cc1Cl : its liver exposure reads 40.9
